Could you please report measured pIC50 for the items listed next?
target: HLA-A*02:02; experiment: IEDB peptide-MHC binding, purified MHC/competitive/radioactivity; bounds were set here for any values at or beyond the usual limits of such assays; settings: source organism: Mammarenavirus choriomeningitidis
Numbers only, as −log10 of the molar value.

// solved cases for pIC50 follow
| sequence-input | pIC50 |
| --- | --- |
| YCNYSKFWYL | 5.95 |
| LSAEELMSL | 7.19 |
| MSCDDVVFGI | 5.98 |

Can you give me pIC50 for all of these, one by one?
1. AVYNFATCGI
2. KCMSAALKNL
3. ALMDLLMFS

## Output
1. 7.60
2. 7.24
3. 9.03

Fill in pIC50 for each of the 5 sequences listed.
1. RNHLRDLMGV
2. LNQTVYSLV
3. LMDCIIFES
4. NSLILLECFV
5. FMLNVSYLC

## Output
1: 6.37; 2: 5.48; 3: 7.52; 4: 8.92; 5: 6.71

----------
Could you please report measured IC50 for the items listed next?
molecular target: HLA-A*68:02; experiment: IEDB peptide-MHC binding, purified MHC/competitive/radioactivity; bounds were set here for any values at or beyond the usual limits of such assays; conditions: source organism: Vaccinia virus WR
Numbers only, in nM.

Here's what some known entries look like.
| sequence-input | measure-unit | IC50 |
| --- | --- | --- |
| LVIRNEVNDT | nM | 854 |
| NTIAVITETI | nM | 2.1 |
| VMYAFTTPLI | nM | 132 |

Dear colleague, could you send me IC50 for each of the items below? Thanks.
1. WVMDTLNGIM
2. TMKAIEKDRL
3. KVYLSTFNM
4. YLRLYIILA

## Output
1: 101; 2: 1570; 3: 1820; 4: 2720

Okay, here is my list. What is IC50 for each of these?
1. IVNTTYDFLA
2. IAVITETIPI
3. DTMRIYCSL
4. VISVIFYFI
5. ELKHGLLDSI
6. LVSDCASTI
7. CIVAAVIIMA
8. QLFKYVPSA

## Output
1. 991
2. 154
3. 1.3
4. 7.6
5. 266
6. 71
7. 1.3
8. 1620

Below is a list of sequences. For each, state its recorded IC50.
1. MLNRVQILM
2. CTIVDSMII
3. RVLYDEFVTI
4. MAEFEDQLV
5. IQKDINITHT
6. RQDYRRSINV

## Output
1: 4200; 2: 3080; 3: 1640; 4: 674; 5: 4990; 6: 3970

----------
molecular target: HLA-A*02:03; assay: IEDB peptide-MHC binding, cellular MHC/competitive/fluorescence; bounds were set here for any values at or beyond the usual limits of such assays; conditions: source organism: Vaccinia virus WR
observed-property: IC50 (µM)
One number for each entry, in µM.

| sequence-input | reported-value |
| --- | --- |
| KADAVVADL | 12.4 |

Your task in this section: give IC50 for each listed record.
1. VIRHVDGKIL
2. CAVIPFDDI
3. VVYHDDDNTT
4. DIYDAVRAFL
5. LTDVEKRIL
6. YAVLSEYETM

## Output
33.4
10
12.6
6.95
28.5
9.63

Quick batch: IC50 for everything below.
1. FVVNGHTCM
2. ETQSGALEVL
3. YVHSLLYSSM
4. VAEHRFENM
5. TAIRAGYSI
6. DAEFVMCLEA

## Output
1: 5.9; 2: 14.5; 3: 6.71; 4: 7.16; 5: 9.2; 6: 7.3

Give measured IC50 for every item shown.
1. NQLDSSNKSM
2. VMDKNHAIFT
3. DTDIVNNFIT
4. DTEFINKFL
5. LLDEPLSPDT

## Output
[30, 11.5, 5.59, 42.7, 10.1]

Fill in IC50 for each of the 7 sequences listed.
1. ETAIRAGYSI
2. NIEIMDKEQL
3. CAVNTPVSM
4. GVLPEETNI
5. YVVIVENDNV
6. VVECLTVPNI
7. DAKRNSKSL

## Output
1. 29.3
2. 15.5
3. 15.7
4. 20.4
5. 11
6. 19.6
7. 49.7

State recorded IC50 for all listed sequences.
1. DTSNNIAEYI
2. TIILNKIVQL
3. VLTSVDIET
4. NAVTTNNLL

## Output
9.22
49.3
11.3
24.9

Quick request: IC50 for each listed item, please.
1. AINKCVDIFT
2. ITDDSDDYEL
3. DVCKKNLDL
4. YVLFVKKML
5. SAGFTATICL

## Output
1: 26.4; 2: 11.9; 3: 8.02; 4: 12; 5: 20.1

Please state IC50 for every sequence in the list that follows.
1. DILQMREIIT
2. LVIRNEVNDT
3. RAGYSIVEL
4. GVEVRYIDI
5. AIKQYGDIDL
6. RLEVIGLTT

## Output
56.2
15.2
5.39
45.3
46.4
13.9

Batch request: IC50 per item, same order as input.
1. TTENAAYQV
2. EALYYVHSL

## Output
1. 51.3
2. 5.77

----------
biological target: HLA-A*23:01; assay: IEDB peptide-MHC binding, purified MHC/competitive/radioactivity; bounds were set here for any values at or beyond the usual limits of such assays; conditions: source organism: Vaccinia virus WR
pIC50: −log10 of the molar value.
Decision: pIC50 >= 6 yields condition met, all other cases yield condition not met.

| sequence-input | target | cat |
| --- | --- | --- |
| VQYRILPMII | HLA-A*23:01 | condition met |
| FQESFYEDI | HLA-A*23:01 | condition met |

## Input Kindly determine if pIC50 recorded for "VQSVLRDISI" is above or exactly 6.
## Output condition not met

## Input Would you say "AQQFCQYLI" shows pIC50 at minimum 6?
## Output condition met

## Input Item "SQIFNIISYI" with pIC50 of 6 or above?
## Output condition not met

----------
Assignment: determine reported log10(IC50) for the given sequences.
target: HLA-A*02:06; test: IEDB peptide-MHC binding, purified MHC/competitive/radioactivity; bounds were set here for any values at or beyond the usual limits of such assays; details: source organism: Hepacivirus hominis
Hi team, quick reminder: these entries are log10 of IC50 (nM).

Record log10(IC50) for all entries; do not skip any.
1. LLLGLLLLCV
2. HLFTSMFSL

## Output
[3.70, 2.80]

List reported log10(IC50) for each of these sequences:
1. VLMTHFFSVL
2. VLAGGVLAAV
3. LLSCISVPV
4. YLVTRNADV
5. FMLCLLLLS
6. MLVCGDDLVV
7. RLVPGATYAL

## Output
[2.05, 1.52, 1.23, 3.64, 3.32, 2.20, 2.92]

Lab note: each sequence below needs its log10(IC50) filled in.
1. RLHGLEAFSL
2. LLGCIITSL
3. KLFPRLPGI
4. WMMLLIAQA
5. FISGIQYLA
6. VLWTVFHGA

## Output
1. 2.81
2. 3.50
3. 0.34
4. 2.85
5. 3.13
6. 2.28

----------
Give measured IC50 for each item. Keep answers brief.
target: HLA-A*68:02; assay: IEDB peptide-MHC binding, cellular MHC/competitive/fluorescence; bounds were set here for any values at or beyond the usual limits of such assays; conditions: source organism: Vaccinia virus WR
One number for each entry, in µM.

Take a look at these entries with their results.
| sequence-input | measure-unit | IC50 |
| --- | --- | --- |
| VILKDPRIA | µM | 37.9 |
| AIKSNNHLT | µM | 46.1 |
| PLPSLEYGA | µM | 30.9 |
| LLEMKYALI | µM | 35.8 |
| DLLFNEKLKV | µM | 9.97 |

Lab note: each sequence below needs its IC50 filled in.
1. FIISTLNKIL
2. KIILFQNNDI
3. PTILATLNTL
4. KIDKLTFQI
5. SILNNPVDT

## Output
[11.7, 17.2, 9.74, 36.9, 46.8]

----------
target: HLA-A*02:03; assay: IEDB peptide-MHC binding, purified MHC/competitive/radioactivity; bounds were set here for any values at or beyond the usual limits of such assays; details: source organism: Hepatitis B virus
pIC50: −log10 of the molar value.
Give true (1) when the value for pIC50 is at least 8. Give false (0) when it is less.

Past entries and their recorded results:
| sequence-input | cat |
| --- | --- |
| GLSRYVARV | true (1) |
| ILCWGELMTL | true (1) |
| RVRGLYFPA | false (0) |
| KQYLNLYPV | true (1) |
| ILRGTSFVYV | true (1) |

## Input Reported pIC50 reaches at least 8 for "LVPFVQWFV" ?
## Output false (0)

## Input pIC50 >= 8 for "SLNFLGGTTV" ?
## Output true (1)

## Input Could you please find out whether "ILSPFLPLL" has pIC50 that meets 8 or exceeds it?
## Output true (1)
